# test: Cytotoxicity against human fibroblasts assessed as cell survival at 50 uM after 48 hrs by Hoechst 33342 staining based assay relative to control
# Set-up: species or system Fibroblast
# condition-details: read-out: Survival
readout-label: viability at 48 h, 50 µM (%)

> print(dat)
                            substance.smiles  limit.operator  reading
 1  COc1cc(O)c(C(=O)/C=C/c2ccc(Cl)cc2)c(OC)c1               >       80
 2   COc1ccc(/C=C/C(=O)c2c(O)cc(OC)cc2OC)cc1               =       67
 3  COc1cc(OC)c(C(=O)/C=C/c2ccc(Br)cc2)c(OC)c1               =       57
 4  COc1cccc(/C=C/C(=O)c2c(OC)cc(OC)cc2OC)c1               =       66
 5  COc1cc(O)c(C(=O)/C=C/c2ccc(C(=O)O)cc2)c(OC)c1               >       80
 6     COc1cc(O)c(C(=O)/C=C/c2ccccc2)c(OC)c1               =       32
 7  COc1cc(O)c(C(=O)/C=C/c2ccc(F)cc2)c(OC)c1               >       80
 8   COc1cccc(/C=C/C(=O)c2c(O)cc(OC)cc2OC)c1               =       44
 9  COc1cc(OC)c(C(=O)/C=C/c2ccccc2SC)c(OC)c1               =       74
10  COc1cc(OC)c(C(=O)/C=C/c2ccccc2OC)c(OC)c1               =       77
11  COc1cc(OC)c(C(=O)/C=C/c2ccc(C(=O)O)cc2)c(OC)c1               =       57
12  COc1cc(O)c(C(=O)/C=C/c2ccc(Br)cc2)c(OC)c1               >       80
13  COc1cc(OC)c(C(=O)/C=C/c2ccc(F)cc2)c(OC)c1               =       78
14  COc1cc(OC)c(C(=O)/C=C/c2ccc(O)cc2)c(OC)c1               =       65
15  COc1cc(O)c(C(=O)/C=C/c2ccc(N(C)C)cc2)c(OC)c1               >       80
16    COc1cc(OC)c(C(=O)/C=C/c2ccccc2)c(OC)c1               =       74
17   COc1cc(O)c(C(=O)/C=C/c2ccccc2SC)c(OC)c1               =       65
18   COc1cc(O)c(C(=O)/C=C/c2ccccc2OC)c(OC)c1               =       71
